Reference source: ChEMBL document CHEMBL3217481

Target: Fatty-acid amide hydrolase 1 (Homo sapiens, UniProt O00519)
Sequence (O00519 whole entry): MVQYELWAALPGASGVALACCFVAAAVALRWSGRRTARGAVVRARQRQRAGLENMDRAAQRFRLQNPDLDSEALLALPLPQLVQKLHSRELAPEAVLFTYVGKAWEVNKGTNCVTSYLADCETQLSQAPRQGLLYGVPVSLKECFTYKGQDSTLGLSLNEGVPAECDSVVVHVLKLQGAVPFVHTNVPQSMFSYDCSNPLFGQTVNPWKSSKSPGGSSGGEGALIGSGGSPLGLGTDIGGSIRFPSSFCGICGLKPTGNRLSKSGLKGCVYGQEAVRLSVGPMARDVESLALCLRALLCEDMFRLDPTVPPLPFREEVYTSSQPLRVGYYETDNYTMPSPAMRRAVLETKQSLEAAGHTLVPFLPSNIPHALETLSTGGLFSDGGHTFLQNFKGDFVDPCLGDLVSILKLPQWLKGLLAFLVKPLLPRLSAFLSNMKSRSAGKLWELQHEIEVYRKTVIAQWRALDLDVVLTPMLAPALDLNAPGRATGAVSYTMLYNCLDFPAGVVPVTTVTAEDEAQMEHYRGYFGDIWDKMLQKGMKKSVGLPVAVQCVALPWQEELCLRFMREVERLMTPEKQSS
Assay: Inhibition of human FAAH expressed in HEK293 cells using arachadonyl 7-amino 4-methyl coumarin amide as substrate by fluorimetric assay
Type: cell-based
Property: pIC50
As a rule, pIC50 stands for the negative log10 of the concentration, concentration in M.

COCc1ccc(-c2ccc3oc(N4Cc5ccccc5C4)nc3c2)cc1; 8.00

Reported pIC50 for Fatty-acid amide hydrolase 1 (Homo sapiens, UniProt O00519), given `Cn1ccc2cc(-c3ccc4oc(N5CCn6cccc6C5)nc4c3)ccc21` ?
7.38

Record: `COc1cc(-c2ccc3oc(N4Cc5ccccc5C4)nc3c2)ccn1`
8.00

Let us now turn to `N#Cc1cc(-c2ccc3oc(NC4CCCCC4)nc3c2)ccc1O`
7.27

Follow-up entry: `Cn1ccc2cc(-c3ccc4oc(N5CCCC5)nc4c3)ccc21`
6.17

Also check `COc1ccc(Nc2nc3cc(-c4ccc5c(ccn5C)c4)ccc3o2)cc1`
6.55

Also, `Cn1ncc2c(-c3ccc4oc(NC5CCCCC5)nc4c3)cccc21` please.
7.28

Similarly, `Cn1ccc2cc(-c3ccc4oc(N5CCN(c6ccccc6)CC5)nc4c3)ccc21` ?
7.20

* * *

Biological target: Fatty-acid amide hydrolase 1 (Homo sapiens, UniProt O00519)
Test: Inhibition of human FAAH expressed in HEK293 cells using arachadonyl 7-amino 4-methyl coumarin amide as substrate by fluorimetric assay
Type: cell-based
Catalogue of compounds with associated log10(IC50)
Please be aware that the numbers have been log10-transformed from IC50 in nM.

Some compounds with known log10(IC50) results, for comparison:
Cn1ccc2cc(-c3ccc4oc(N5CCc6ccccc6C5)nc4c3)ccc21; 1.74
Cn1ccc2cc(-c3ccc4oc(Nc5ccccc5)nc4c3)ccc21; 1.68
Cn1ncc2cc(-c3ccc4oc(NC5CCCCC5)nc4c3)ccc21; 1.79
CCn1ccc2cc(-c3ccc4oc(Nc5ccccc5)nc4c3)ccc21; 1.26
c1ccc2c(c1)CN(c1nc3cc(-c4ccc5nccn5c4)ccc3o1)C2; 1.15
C[C@@H]1CN(c2nc3cc(-c4ccc5c(ccn5C)c4)ccc3o2)C[C@H](C)O1; 2.23

I am curious: what log10(IC50) value has been reported for `Cn1ccc2cc(-c3ccc4oc(NC5CCCCC5)nc4c3)ccc21` ?
2.96

Entry to check: `COCc1ccc(-c2ccc3oc(N4Cc5ccccc5C4)nc3c2)cc1OC`
1.11

Same question for `Cn1ccc2cc(-c3ccc4oc(Nc5cccnc5)nc4c3)ccc21` please.
2.35

Now consider `Cn1ccc2cc(-c3ccc4oc(N5Cc6ccncc6C5)nc4c3)ccc21` .
2.08

* * *

Assay: Inhibition of guinea pig brain FAAH
Set-up: species or system Cavia porcellus
Property: IC50 (nM)
Numbers only here, please. The scale is nM.

NC(=O)c1cccc(-c2cccc(OC(=O)NC3CCCCC3)c2)c1; 26
Cn1ccc2cc(-c3ccc4oc(N5Cc6ccccc6C5)nc4c3)ccc21; 423

What IC50 value was documented for this compound, `O=C(Nc1ccccc1)N1CCC(Cc2cnc3ccccc3c2)CC1` ?
66

For `CCn1ccc2cc(-c3ccc4oc(Nc5ccccc5)nc4c3)ccc21` then?
424

* * *

Target: UniProt:O00519
Assay: Inhibition of human FAAH expressed in HEK293 cells using arachadonyl 7-amino 4-methyl coumarin amide as substrate by fluorimetric assay
Type: cell-based
Property: pIC50
In plain terms, pIC50 is the concentration in mol/L turned into minus its base-10 logarithm.

Cn1ccc2cc(-c3ccc4oc(N5Cc6cccnc6C5)nc4c3)ccc21; 6.68
NC(=O)Cn1ccc2cc(-c3ccc4oc(NC5CCCCC5)nc4c3)ccc21; 6.67
Cn1ccc2cc(-c3ccc4oc(N5Cc6ccccc6C5)nc4c3)ccc21; 7.92

Find the recorded pIC50 belonging to `Cn1ncc2c(-c3ccc4oc(N5Cc6ccccc6C5)nc4c3)cccc21` and report it.
8.49
